Target: PI3K alpha (Homo sapiens, UniProt P42336)
Construct: for the p110-a subunit (with a deletion of the first 20 amino acids) are generated; His tag (C); Tn5 (Trichoplusia ni) or TiniPro insect cells
Sequence (P42336 with tags, fused parts or gaps limits assumed, species assumed): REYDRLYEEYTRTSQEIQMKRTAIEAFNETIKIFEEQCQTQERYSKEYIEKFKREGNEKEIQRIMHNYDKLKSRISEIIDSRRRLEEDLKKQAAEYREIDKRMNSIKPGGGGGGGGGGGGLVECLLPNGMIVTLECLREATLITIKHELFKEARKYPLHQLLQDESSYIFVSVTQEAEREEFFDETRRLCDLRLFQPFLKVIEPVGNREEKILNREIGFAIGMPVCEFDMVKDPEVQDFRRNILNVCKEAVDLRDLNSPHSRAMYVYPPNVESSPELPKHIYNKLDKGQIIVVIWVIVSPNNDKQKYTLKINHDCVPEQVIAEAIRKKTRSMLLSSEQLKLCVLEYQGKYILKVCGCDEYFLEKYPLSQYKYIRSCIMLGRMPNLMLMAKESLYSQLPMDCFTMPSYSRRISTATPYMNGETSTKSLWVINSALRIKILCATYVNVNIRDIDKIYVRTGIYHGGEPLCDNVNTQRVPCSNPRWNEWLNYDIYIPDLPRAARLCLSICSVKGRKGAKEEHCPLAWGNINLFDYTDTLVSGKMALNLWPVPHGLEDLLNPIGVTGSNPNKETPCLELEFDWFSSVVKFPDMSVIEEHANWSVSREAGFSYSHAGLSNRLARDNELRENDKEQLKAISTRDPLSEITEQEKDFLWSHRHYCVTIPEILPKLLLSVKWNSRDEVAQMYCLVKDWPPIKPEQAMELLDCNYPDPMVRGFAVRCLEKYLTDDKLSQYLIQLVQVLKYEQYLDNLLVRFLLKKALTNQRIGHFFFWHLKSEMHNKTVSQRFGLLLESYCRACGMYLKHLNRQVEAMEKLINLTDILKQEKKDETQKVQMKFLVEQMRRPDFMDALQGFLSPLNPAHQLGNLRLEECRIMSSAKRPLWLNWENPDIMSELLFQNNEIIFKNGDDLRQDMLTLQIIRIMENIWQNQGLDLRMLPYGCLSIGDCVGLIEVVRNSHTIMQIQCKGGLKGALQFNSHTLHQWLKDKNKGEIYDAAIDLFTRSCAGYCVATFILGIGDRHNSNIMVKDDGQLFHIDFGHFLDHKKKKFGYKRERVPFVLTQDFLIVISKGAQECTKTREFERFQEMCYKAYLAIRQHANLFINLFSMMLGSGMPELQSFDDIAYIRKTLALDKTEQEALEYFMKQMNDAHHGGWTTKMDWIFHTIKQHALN
Experiment: Enzymatic PI3K alpha isoform inhibition (lipid kinase activity, Kinase-Glo)
Conditions: enzymatic assay
Method: The components of the assay are added per well as follows: IC50 is determined by a four parameter curve fitting routine that comes along with “excel fit”. Yet alternatively, for an ATP depletion assay, compounds of the formula I to be tested are dissolved in DMSO and directly distributed into a white 384-well plate at 0.5 μl per well. […] The stopped reaction is incubated for 5 minutes and the remaining ATP is then detected via luminescence. IC50 values are then determined.
MEASURED_QUANTITY: IC50 (nM)

# SMILES_CODE, MEASUREMENT_UNIT, VALUE_PREFIX, RECORDED_VALUE
measured = [
    ("COc1ncc(-c2ccc3ncnc(-c4cccc(C(=O)N5CCN(C(C)=O)CC5)c4)c3c2)cc1F", "nM", "=", 62),
    ("COc1ncc(-c2ccc3ncnc(-c4cncc(C(=O)N5CCOCC5)c4)c3c2)cc1C#N", "nM", "=", 880),
    ("CC(=O)N1CCN(C(=O)c2cncc(-c3ncnc4ccc(-c5cncc(C(F)(F)F)c5)cc34)c2)CC1", "nM", "=", 319),
    ("CN1CCN(C(=O)c2cncc(-c3ncnc4ccc(-c5cnc(N)nc5)cc34)c2)CC1", "nM", "=", 657),
    ("CCC(=O)N1CCN(C(=O)c2cccc(-c3ncnc4ccc(-c5cnc(OC)c(C#N)c5)cc34)c2)CC1", "nM", "=", 316),
    ("COc1ncc(-c2ccc3ncnc(-c4cncc(C(=O)N5CCOCC5)c4)c3c2)cc1C(F)(F)F", "nM", "=", 97),
    ("COc1ccc(-c2ccc3ncnc(-c4ccc(C)c(C(=O)N5CCN(C)CC5)c4)c3c2)cn1", "nM", "=", 888),
    ("COc1ccc(-c2ccc3ncnc(-c4ccc(C)c(C(=O)N5CCN(C(C)=O)CC5)c4)c3c2)cn1", "nM", "=", 188),
    ("COc1ccc(-c2ccc3ncnc(-c4cccc(C(=O)N5CCN(C)CC5)c4)c3c2)cc1S(=O)(=O)N1CCOCC1", "nM", "=", 2270),
    ("CN1CCN(C(=O)c2cccc(-c3ncnc4ccc(-c5ccc(N)nc5)cc34)c2)CC1", "nM", "=", 184),
    ("CN1CCN(C(=O)c2cccc(-c3ncnc4ccc(-c5ccc(N(C)C)nc5)cc34)c2)CC1", "nM", "=", 352),
    ("COc1ccc(-c2ccc3ncnc(-c4cccc(C(=O)N5CCNC[C@@H]5C)c4)c3c2)cn1", "nM", "=", 102),
    ("COc1ncc(-c2ccc3ncnc(-c4cc(F)cc(C(=O)N5CCN(C(C)=O)CC5)c4)c3c2)cn1", "nM", "=", 1360),
    ("COc1ccc(-c2ccc3ncnc(-c4cccc(C(=O)N5CCNC(C)(C)C5)c4)c3c2)cn1", "nM", "=", 100),
    ("COc1ncc(-c2ccc3ncnc(-c4cncc(C(=O)N5CCOC(C)(C)C5)c4)c3c2)cc1F", "nM", "=", 505),
    ("COc1ncc(-c2ccc3ncnc(-c4cncc(C(=O)N5CCN(C)CC5)c4)c3c2)cn1", "nM", "=", 1710),
    ("COc1ncc(-c2ccc3ncnc(-c4cc(C(=O)N5CCN(C(C)=O)CC5)cc(C(F)(F)F)c4)c3c2)cc1C#N", "nM", "=", 2120),
    ("COc1ncc(-c2ccc3ncnc(-c4ccc(C)c(C(=O)N5CCN(C(C)=O)CC5)c4)c3c2)cn1", "nM", "=", 770),
    ("COc1ccc(-c2ccc3ncnc(-c4cncc(C(=O)N5CCNC[C@@H]5C)c4)c3c2)cc1C(F)(F)F", "nM", "=", 558),
    ("COc1cc(C(=O)N2CCN(C(C)=O)CC2)cc(-c2ncnc3ccc(-c4cnc(OC)c(C#N)c4)cc23)c1", "nM", "=", 720),
    ("COc1ccc(-c2ccc3ncnc(-c4cccc(C(=O)N5CCN(CC(F)(F)F)CC5)c4)c3c2)cn1", "nM", "=", 126),
    ("COc1ccc(-c2ccc3ncnc(-c4cncc(C(=O)N5C[C@@H]6C[C@H]5CN6C)c4)c3c2)cn1", "nM", "=", 573),
    ("COc1ccc(-c2ccc3ncnc(-c4cccc(C(=O)N5CCN(C)CC5)c4)c3c2)cc1C#N", "nM", "=", 1200),
    ("COc1ncc(-c2ccc3ncnc(-c4cncc(C(=O)N5CCN(C(C)=O)CC5)c4)c3c2)cc1F", "nM", "=", 118),
    ("CCOc1ccc(-c2ccc3ncnc(-c4cccc(C(=O)N5CCN(C)CC5)c4)c3c2)cn1", "nM", "=", 695),
    ("COc1ncc(-c2ccc3ncnc(-c4cncc(C(=O)N5CCN(C(C)=O)CC5)c4)c3c2)cc1C#N", "nM", "=", 472),
    ("COc1ncc(-c2ccc3ncnc(-c4cc(C)cc(C(=O)N5CCN(C(C)=O)CC5)c4)c3c2)cc1C#N", "nM", "=", 435),
    ("COc1ccc(-c2ccc3ncnc(-c4cncc(C(=O)N5CCNC(C)(C)C5)c4)c3c2)cc1C(F)(F)F", "nM", "=", 401),
    ("COc1ncc(-c2ccc3ncnc(-c4ccnc(C(=O)N5CCN(C(C)=O)CC5)c4)c3c2)cn1", "nM", "=", 2320),
    ("CC(=O)N1CCN(C(=O)c2cccc(-c3ncnc4ccc(-c5cc(C#N)c(N)c(C(F)(F)F)c5)cc34)c2)CC1", "nM", ">", 9100),
]
